target: DNA-PK phosphorylation at serine 2056 (Homo sapiens (Human))
procedure-summary: DNA-PK phosphorylation at serine 2056 (cellular), bleomycin-treated HCT116 cells, ELISA
Format: cell-based
experimental-context: cellular; HCT116 cells, 10 μM bleomycin, six hours; read-out: IC50 pDNA-PK
measurement-label: IC50

Solved cases below.
What does the data say about its IC50? Entry: Cn1c(C(O)c2ccc(F)c(-c3ncnc4cc(N5CCOCC5)ccc34)c2)cccc1=O (centres unmarked)
< 0.5 µM

Quick one: IC50 of COC(=O)c1ccc(C(O)c2cc(-c3ncnc4cc(N5CCOCC5)ccc34)c(F)cc2Cl)nn1 (centres unmarked) ?
5 to 10 µM

Given the entry O=C(O)COc1ccc(C(O)c2cc(-c3ncnc4cc(N5CCOCC5)ccc34)c(F)cc2Cl)nn1 (centres unmarked) , report its measured IC50.
10 to 30 µM

Looking for the measured IC50 of OC(c1ccc(F)c(-c2ncnc3cc(N4CCOCC4)sc23)c1)c1nccnc1Cl (single isomer, unassigned) [Example 24] , can you help?
< 0.5 µM

Which value of IC50 has been reported for COc1cc(C(O)c2ccc(F)c(-c3ncnc4cc(N5CCOCC5)ccc34)c2)c(Cl)nn1 (centres unmarked) in the records?
< 0.5 µM

***
GET /values?readout=IC50&item= COc1cc(Cl)nnc1C(O)c1cc(-c2ncnc3cc(N4CCOCC4)ccc23)c(F)cc1Cl (centres unmarked)
0.5 to 5 µM

Consider the compound OC(c1ccc(F)c(-c2ncnc3cc(N4CCOCC4)ccc23)c1)c1nccnc1N1CCCC1 (centres unmarked) and give its measured IC50.
0.5 to 5 µM

Fill in: IC50 of O=c1[nH]ccnc1C(O)c1ccc(F)c(-c2ncnc3cc(N4CCOCC4)ccc23)c1 (centres unmarked) is ___
10 to 30 µM

----------
target: Kv11.1 (hERG) (Homo sapiens (Human))
Sequence (Q12809 whole entry): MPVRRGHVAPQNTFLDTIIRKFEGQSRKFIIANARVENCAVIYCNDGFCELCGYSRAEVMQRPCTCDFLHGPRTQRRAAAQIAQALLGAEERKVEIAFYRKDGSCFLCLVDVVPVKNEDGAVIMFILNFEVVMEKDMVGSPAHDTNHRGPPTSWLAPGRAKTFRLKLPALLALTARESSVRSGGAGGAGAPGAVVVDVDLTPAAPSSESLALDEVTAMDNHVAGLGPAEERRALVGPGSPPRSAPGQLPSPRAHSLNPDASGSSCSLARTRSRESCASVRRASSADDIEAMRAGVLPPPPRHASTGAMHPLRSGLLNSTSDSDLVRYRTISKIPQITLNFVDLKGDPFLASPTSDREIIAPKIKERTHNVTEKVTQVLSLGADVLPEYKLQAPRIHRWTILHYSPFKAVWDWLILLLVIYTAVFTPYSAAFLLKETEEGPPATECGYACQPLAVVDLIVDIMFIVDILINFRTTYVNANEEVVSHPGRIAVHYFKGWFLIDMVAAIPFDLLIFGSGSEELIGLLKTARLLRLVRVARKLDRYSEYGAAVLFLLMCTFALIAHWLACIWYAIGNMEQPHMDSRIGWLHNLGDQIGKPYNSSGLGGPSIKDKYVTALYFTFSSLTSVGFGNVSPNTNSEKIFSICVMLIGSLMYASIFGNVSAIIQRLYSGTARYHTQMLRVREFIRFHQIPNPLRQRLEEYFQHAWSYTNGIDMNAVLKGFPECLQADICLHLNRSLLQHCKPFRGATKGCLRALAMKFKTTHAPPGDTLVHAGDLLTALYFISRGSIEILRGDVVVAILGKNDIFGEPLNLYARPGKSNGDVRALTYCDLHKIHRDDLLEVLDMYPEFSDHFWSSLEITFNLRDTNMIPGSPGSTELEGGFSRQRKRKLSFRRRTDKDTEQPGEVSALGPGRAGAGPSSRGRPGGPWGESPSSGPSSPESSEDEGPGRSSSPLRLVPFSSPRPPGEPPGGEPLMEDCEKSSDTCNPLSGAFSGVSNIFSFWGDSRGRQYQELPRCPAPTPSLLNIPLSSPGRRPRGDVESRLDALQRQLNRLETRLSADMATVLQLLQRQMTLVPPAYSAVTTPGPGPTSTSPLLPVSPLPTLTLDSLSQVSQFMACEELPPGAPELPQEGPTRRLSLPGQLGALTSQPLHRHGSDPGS
procedure-summary: Kv11.1 (hERG) ion channel activity (patch clamp assay), HEK293 cells transfected with hERG gene
experimental-context: read-out: Ki [Kv1.11 hERG]; hERG patch clamp assay (cells without asterisk)
measurement-label: Ki

Study these solved cases before continuing.
Endpoint output: Ki of OC(c1cc(-c2ncnc3cc(N4CCOCC4)ccc23)ccc1Cl)c1nccn2cccc12 (centres unmarked) [Example 361] . Value?
< 10 µM

Ki for Cc1cc(C(C(N)=O)c2cc(-c3ncnc4cc(N5CCOCC5)ccc34)c(F)cc2Cl)n(C)c(=O)c1 (centres unmarked) [Example 334] ?
> 25 µM

Requested read-out: Ki. Entry: OC(c1cc(-c2ncnc3cc(N4CCOCC4)ccc23)ccc1Cl)c1ncnc2ccoc12 (centres unmarked) [Example 415]
10 to 15 µM

More entries:
Query: Ki; subject: OC(c1ccc(F)c(-c2ncnc3cc(N4CCOCC4)ccc23)c1)c1nncc2ccoc12 (centres unmarked) [Example 335]
> 25 µM

Endpoint output: Ki of Cc1nccnc1/C(C(=O)O)=C1/C=CC(=O)C(c2ncnc3cc(N4CCOCC4)ccc23)=C1 [Example 331] . Value?
> 25 µM

For OC(c1ccc(F)c(-c2ncnc3cc(N4CCOCC4)ccc23)c1)c1nnc2ccccn12 (centres unmarked) [Example 344] , what is its reported Ki?
> 25 µM

Please give the measured Ki for this molecule: CN1CCN(c2nccnc2C(O)c2ccc(F)c(-c3ncnc4cc(N5CCOCC5)ccc34)c2)C1=O (centres unmarked) [Example 424]
> 25 µM

Param item = COc1nccnc1C(C(N)=O)c1cc(-c2ncnc3cc(N4CCOCC4)ccc23)c(F)cc1F (centres unmarked) [Example 319] ; retrieve measured Ki.
> 25 µM
